System: C-C chemokine receptor type 6 (Homo sapiens) (UniProt P51684)
Assay Explanation: potency against CXCR6 with APJ panel – cell-based, beta-arrestin, DiscoveRx, uHTS hits, dose response (AID 624129)
Condition Info: CXCR6 beta-arrestin (DiscoveRx) antagonist cell assay, CCR6, dose range 1, mean IC50 across replicates
The reader will find reported IC50 values listed item by item below.
Measured Parameter: IC50 (µM)

compound=COC(=O)C1=C(c2ccc(-c3ccccc3)c(F)c2)C[C@@H]2CC[C@H]1N2C(=O)N1CCC(C)CC1 system="C-C chemokine receptor type 6 (Homo sapiens) (UniProt P51684)" bound_sign== endpoint_value=8.25
compound="CC(=O)OC1C2(CC3N4C(=O)C5(CO)SSC4(CC31O)C(=O)N5C)OC(C)C(C)(C)C2=O (centres undefined)" system="C-C chemokine receptor type 6 (Homo sapiens) (UniProt P51684)" bound_sign== endpoint_value=1.35
compound=CC(C)(C)c1ccc(CN2N=Nc3ccccc3S2(=O)=O)cc1 system="C-C chemokine receptor type 6 (Homo sapiens) (UniProt P51684)" bound_sign== endpoint_value=17.2
compound=O=C(Nc1cccc(C(F)(F)F)c1)Oc1ccc(Cl)c2cccnc12 system="C-C chemokine receptor type 6 (Homo sapiens) (UniProt P51684)" bound_sign== endpoint_value=0.54
compound=Cn1c(=O)c([N+](=O)[O-])c(Cl)c2ccccc21 system="C-C chemokine receptor type 6 (Homo sapiens) (UniProt P51684)" bound_sign== endpoint_value=21.7
compound=C/C(=N\NC(=O)COc1ccccc1-c1ccccc1)c1ccccn1 system="C-C chemokine receptor type 6 (Homo sapiens) (UniProt P51684)" bound_sign== endpoint_value=2.25
compound=NNc1nc(-c2ccccc2)cc(-c2ccccc2O)n1 system="C-C chemokine receptor type 6 (Homo sapiens) (UniProt P51684)" bound_sign== endpoint_value=7.29
compound=N#CC(C#N)=C1C=CC=CN1/C(=C\c1ccccc1Cl)C(=O)c1ccccc1 system="C-C chemokine receptor type 6 (Homo sapiens) (UniProt P51684)" bound_sign== endpoint_value=6.75
compound=CCCC(=O)OCCNc1cc(Sc2nccn2C)c2nonc2c1[N+](=O)[O-] system="C-C chemokine receptor type 6 (Homo sapiens) (UniProt P51684)" bound_sign== endpoint_value=4.62
compound=Cc1ccc(C(=O)CNc2ccc(F)cc2)cc1 system="C-C chemokine receptor type 6 (Homo sapiens) (UniProt P51684)" bound_sign== endpoint_value=0.271
compound=O=C1C=CC2(C=C1)O[C@H](Cc1ccccc1)[C@@H](Cc1ccccc1)O2 system="C-C chemokine receptor type 6 (Homo sapiens) (UniProt P51684)" bound_sign== endpoint_value=4.75
compound=Cc1ccc(NC(=S)N/N=C/c2ccc([N+](=O)[O-])s2)cc1 system="C-C chemokine receptor type 6 (Homo sapiens) (UniProt P51684)" bound_sign== endpoint_value=5.06
compound=C=CS(=O)(=O)c1c2cc(OC)ccc2nc2ccc(OC)cc12 system="C-C chemokine receptor type 6 (Homo sapiens) (UniProt P51684)" bound_sign== endpoint_value=11.7
compound=Cc1c(Nc2cc(Cl)c3nonc3c2[N+](=O)[O-])c(=O)n(-c2ccccc2)n1C system="C-C chemokine receptor type 6 (Homo sapiens) (UniProt P51684)" bound_sign== endpoint_value=3.35
compound=C/C(=N\NC(=O)c1ccc(F)cc1)c1ccccn1 system="C-C chemokine receptor type 6 (Homo sapiens) (UniProt P51684)" bound_sign== endpoint_value=1.19
compound=C=C1C(=O)O[C@@H]2C[C@@H](C)[C@@H]3C=CC(=O)[C@@]3(C)[C@@H](OC(=O)CC(=O)O[C@H]3[C@@H]4C(=C)C(=O)O[C@@H]4C[C@@H](C)[C@@H]4C=CC(=O)[C@]43C)[C@H]12 system="C-C chemokine receptor type 6 (Homo sapiens) (UniProt P51684)" bound_sign== endpoint_value=3.35
compound=S=C(N/N=C/c1ccccc1)N1CCOCC1 system="C-C chemokine receptor type 6 (Homo sapiens) (UniProt P51684)" bound_sign== endpoint_value=6.34
compound=S=C(NCCCN1CCOCC1)Nc1ccc(Cl)cc1 system="C-C chemokine receptor type 6 (Homo sapiens) (UniProt P51684)" bound_sign== endpoint_value=9.33
compound=Cc1nc2c(-c3ccc(Cl)cc3)c(C)[nH]n2c(=O)c1Cc1ccccc1 system="C-C chemokine receptor type 6 (Homo sapiens) (UniProt P51684)" bound_sign=> endpoint_value=80
